Please respond with reported glycan array binding signal (z-score) for every item in the list.
- SYSTEM_UNDER_TEST: Neu5Ac(a2-6)Gal
- ASSAY_OVERVIEW: glycan array binding signal (z-score within array); higher = stronger binding
- CONDITION: glycan notation: IUPAC condensed, linker removed
About 410 targets per protein were measured; listed, in parts, are those with the strongest signals and a random draw of the rest.
Answers are plain numbers.

Reference set (3 entries):
[[record]]
binder = "CC1G-11630 (Coprinopsis cinerea), A8P462 (protein) MTTEAKIKLKAVVYWELVFDYDNSSNTGEITQSYTVKISQTSTRSTFASEVSTTTIDTLTKNNQEVDVGASYGAISANVSASWEHSEEVNNMLEKTTQTSTEDTYTVETEETRSYTIGPGGMLSLFQKHFSGPGMHVAFDVFTTDLELAKERTEIDIDVDVEAIRFVREIRVVYTDIMSEAPGDHVREINGKNPDINYGFNGKFVWLVPEQTRKTAQALTNVEFVSQAESDDRYWDLAAGAGGSNRYLIPVYDTNNKDKIYELALWRSDSYITHDKVKAAGWSGTTGDINSGRGGTYLNLVWKTRHAY"
recorded_measurement = -0.074

[[record]]
binder = "Ficolin A (Rattus norvegicus), Q9WTS8 (protein) MWWPMLWAFPVLLCLCSSQALGQESGACPDVKIVGLGAQDKVAVIQSCPSFPGPPGPKGEPGSPAGRGERGLQGSPGKMGPPGSKGEPGTMGPPGVKGEKGERGTASPLGQKELGDALCRRGPRSCKDLLTRGIFLTGWYTIYLPDCRPLTVLCDMDVDGGGWTVFQRRVDGSINFYRDWDSYKRGFGNLGTEFWLGNDYLHLLTANGNQELRVDLREFQGQTSFAKYSSFQVSGEQEKYKLTLGQFLEGTAGDSLTKHNNMAFSTHDQDNDTNGGKNCAALFHGAWWYHDCHQSNLNGRYLPGSHESYADGINWLSGRGHRYSYKVAEMKIRAS"
recorded_measurement = -0.042

[[record]]
binder = "LTL (Lotus tetragonolobus), P19664 (protein) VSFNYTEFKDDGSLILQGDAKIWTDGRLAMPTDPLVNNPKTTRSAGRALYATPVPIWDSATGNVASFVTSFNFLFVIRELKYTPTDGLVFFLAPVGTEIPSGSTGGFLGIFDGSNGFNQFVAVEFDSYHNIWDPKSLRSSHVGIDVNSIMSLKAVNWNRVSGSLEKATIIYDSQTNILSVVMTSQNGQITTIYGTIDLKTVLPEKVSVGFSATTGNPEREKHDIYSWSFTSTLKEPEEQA"
recorded_measurement = -0.162


Kindly review the next binder as well.
[ask] Please report glycan array binding signal (z-score) for the following binder: Erv46-EDTA (Saccharomyces cerevisiae), P39727 (protein) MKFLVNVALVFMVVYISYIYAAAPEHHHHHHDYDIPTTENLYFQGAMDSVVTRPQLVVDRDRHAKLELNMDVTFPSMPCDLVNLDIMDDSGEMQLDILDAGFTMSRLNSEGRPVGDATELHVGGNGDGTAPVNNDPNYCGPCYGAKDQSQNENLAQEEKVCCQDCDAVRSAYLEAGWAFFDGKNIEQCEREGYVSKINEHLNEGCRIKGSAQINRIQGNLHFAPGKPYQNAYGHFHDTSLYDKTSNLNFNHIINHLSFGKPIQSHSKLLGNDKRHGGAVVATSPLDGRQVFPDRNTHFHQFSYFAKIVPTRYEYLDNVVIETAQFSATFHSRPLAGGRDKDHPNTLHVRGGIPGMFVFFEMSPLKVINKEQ
[reply] -0.121
